INHIBITION values by entry
System: Plasmodium berghei
Test: Screen against P. berghei liver stage (PbLuc), transformed with Luciferase, at 2uM
Type: functional, HepG2
Details: tested at 2 uM
Among all 68,000 compounds or so, about 2,700 (4%) showed an effect of 50% or more. The entries come from a sample that favours strong results as a whole.
Enter your answer as a number in %; do not include the unit.

Illustrative cases are given below, each with its answer.
CCn1c(C2CCN(C(=O)c3cc(CC(C)C)on3)CC2)nn(C)c1=O; -5.44
Cc1cnn(CCNC(C)C(=O)Nc2ccc(Cl)cn2)c1 (centres undefined); 67.44
Cc1ccc(C(=O)N2CCCCC2c2[nH]ncc2S(C)(=O)=O)cn1 (centres undefined); 19.75
COCCNC(=O)Cn1c(-c2ccco2)cc2cccnc21; 37.87
Cc1nc(CN2CCC23CCN(C(=O)c2ccco2)CC3)cs1; 30.15

## Input Which value of INHIBITION has been reported for CCOc1ncccc1NC(=O)NC1CCN(S(C)(=O)=O)CC1 in the records?
## Output -68.26

## Input Repeat for the following molecule: COc1cc(C)nc(N2CCN(C(=O)CCc3ccsc3)CC2)n1
## Output 1.77

## Input Can you check O=C(C1COc2ccccc2C1)N(CCO)Cc1ccccc1 (centres undefined) next?
## Output -49.31

## Input // query: CCOCC1c2c(ncn2C)CCN1C(=O)c1cnc(C)cn1 (centres undefined)
## Output -6.19

## Input Cool, now NCc1cccc(-c2cccnc2C(=O)NCCCN2CCOCC2)c1
## Output 3.63

## Input Now give it for CC(=O)N[C@@H]1CN(C(=O)c2csc(C(C)C)n2)C[C@H]1C(C)C too.
## Output 3.62

## Input Now the same for Cc1oc(-c2nc(C#N)c(N(C)C)o2)cc1S(=O)(=O)N1CCCC1
## Output -20.66

## Input Thanks! And COc1cc(N2C[C@@H]3COC[C@]3(COCc3ccccn3)C2)ncn1 ?
## Output -14.27

## Input Same lookup for OCCOc1cc(F)ccc1NCc1cccc(F)c1F , please.
## Output -19.62

## Input Try this molecule next: Cc1ccc([C@@H]2CN(C(=O)c3cc(C)no3)C[C@H]2NC(=O)C2CC2)cc1
## Output 0.94
